B1: glmS ribozyme (parent)
chain: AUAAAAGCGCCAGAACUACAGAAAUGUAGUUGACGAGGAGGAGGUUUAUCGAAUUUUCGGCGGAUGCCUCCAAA

Variants of: B1
Experiment: self-cleavage kobs at 2500 uM GlcN6P; higher = faster cleavage; RNA array
Conditions: with glucosamine-6-phosphate
This sample holds only a part of the variants without activity.
ASSAY_READOUT: self-cleavage kobs at 2500 uM GlcN6P

Some solved entries appear below for comparison.
INSERT INTO assay_data (variant_id, value_measured) VALUES
  ('G38U U45A C71A', '< 1e-05 s⁻¹'),
  ('C10G C11A A39U', '< 1e-05 s⁻¹'),
  ('A14U G35C', '< 1e-05 s⁻¹');

Kindly note the recorded self-cleavage kobs at 2500 uM GlcN6P for G32C G35A A64C C70A , which is < 1e-05 s⁻¹

Kindly note the recorded self-cleavage kobs at 2500 uM GlcN6P for G29C G40A G44U A64G , which is < 1e-05 s⁻¹

Kindly note the recorded self-cleavage kobs at 2500 uM GlcN6P for A12U G43U C50U G59A , which is < 1e-05 s⁻¹

Kindly note the recorded self-cleavage kobs at 2500 uM GlcN6P for G7C A12U G41U , which is < 1e-05 s⁻¹

Kindly note the recorded self-cleavage kobs at 2500 uM GlcN6P for A12G G43C U45C C61G , which is < 1e-05 s⁻¹

Kindly note the recorded self-cleavage kobs at 2500 uM GlcN6P for G32U A42C , which is < 1e-05 s⁻¹

Kindly note the recorded self-cleavage kobs at 2500 uM GlcN6P for G13U G35C , which is < 1e-05 s⁻¹

Kindly note the recorded self-cleavage kobs at 2500 uM GlcN6P for U30A U49C G66C , which is < 1e-05 s⁻¹

Kindly note the recorded self-cleavage kobs at 2500 uM GlcN6P for C11G U56G A64U , which is < 1e-05 s⁻¹

Kindly note the recorded self-cleavage kobs at 2500 uM GlcN6P for C8A G38A , which is < 1e-05 s⁻¹
